Reference for the values: patent EP4563146A1

# test-target: Japanese encephalitis virus (JEV)-NS2B-NS3 protease (Japanese encephalitis virus, UniProt P32886, DEL1469-1493)
# experiment: JEV protease inhibition assay
# Format: biochemical
# measurement-parameters: 600 nM enzyme, 10 µM Pyr-RTKR-AMC substrate, 25 °C; read-out: JEV - NS3 protease
property: IC50

Note to self: IC50 recorded for CN(C)C[C@H]1CC[C@H]([n+]2cc([N-]C(=O)Nc3cc(NC(=O)Cc4ccccc4)cc(C(F)(F)F)c3)on2)CC1 [Example 147] was 1 to 20 µM

Note to self: IC50 recorded for CN(C)C[C@H]1CC[C@H]([n+]2cc([N-]C(=O)Nc3cc(NC(=O)Cc4ccc5c(c4)OCO5)cc(C(F)(F)F)c3)on2)CC1 [Example 154] was > 20 µM

====

A short record of pIC50 observed with West Nile Virus (WNV) NS2B-NS3 protease (West Nile virus) follows.
pIC50: −log10 of the molar value.

Cc1ccccc1CC(=O)Nc1cc(NC(=O)[N-]c2c[n+]([C@@H]3CCC[C@H](C(N)=O)C3)no2)cc(C(F)(F)F)c1 ... 6.00 to 7.00
Cc1nnccc1-c1ccc(C[n+]2cc([N-]C(=O)Nc3ccnc(C(F)(F)F)c3)on2)cc1 ... > 7.00
Cc1nc(-c2ccc(C[n+]3cc([N-]C(=O)Nc4ccnc(C(F)(F)F)c4)on3)cc2)c(C)s1 ... 6.00 to 7.00
O=C([N-]c1c[n+](C[C@H]2CC[C@H](c3cncnc3)CC2)no1)Nc1cccc(C(F)(F)F)c1 ... 6.00 to 7.00

Note to self: pIC50 recorded for Cc1cccc(CC(=O)Nc2cc(NC(=O)[N-]c3c[n+]([C@H]4CC[C@H](CN(C)C)CC4)no3)cc(C(F)(F)F)c2)c1C was 6.00 to 7.00

====

# Tested on: ZIKV replicon
# experiment: ZIKV replication inhibition assay (NanoLuc replicon in Vero cells)
# measurement-parameters: Zika virus, Vero, 72 h, read-out: ZIKA Cell_Nanoluc, Vero cells with stable ZIKV replicon, 72 h, Nano-Glo readout
property: EC50

As a guide, the following entries are already answered.
O=C(Cc1ccc2nc[nH]c2c1)Nc1cc(NC(=O)[N-]c2c[n+](Cc3ccccn3)no2)cc(C(F)(F)F)c1 [Example 124] ... > 20 µM
Cc1ncnc(C)c1-c1ccc(C[n+]2cc([N-]C(=O)Nc3ccc(C#N)c(C(F)(F)F)c3)on2)cc1 [Example 207] ... 0.1 to 1 µM

Switching to the query record.
Note to self: EC50 recorded for CNC(=O)[C@@H]1CCC[C@@H]([n+]2cc([N-]C(=O)Nc3cc(NC(=O)Cc4ccccc4C)cc(C(F)(F)F)c3)on2)C1 (racemic) [Example 252] was 1 to 20 µM

====

# System: ZIKV replicon
# experiment: ZIKV replication inhibition assay (NanoLuc replicon in Vero cells)
# measurement-parameters: Zika virus, Vero, 72 h, read-out: ZIKA Cell_Nanoluc, Vero cells with stable ZIKV replicon, 72 h, Nano-Glo readout
Known EC50 of a selection of compounds

O=C(Cc1ccccc1)Nc1cc(NC(=O)[N-]c2c[n+](CC3CCN(CCO)CC3)no2)cc(C(F)(F)F)c1 [Example 141] ... 1 to 20 µM

Switching to the query record.
Note to self: EC50 recorded for Cc1ncnc(C)c1-c1ccc(C[n+]2cc([N-]C(=O)Nc3cc(C(F)(F)F)c4ncccc4c3)on2)cc1 [Example 272] was 0.1 to 1 µM
